The following molecules are shown together with reported P50 values.
species: Homo sapiens; assay: Ability of 0.5 mM to reduce affinity of hemoglobin for oxygen is assessed from 50% partial pressure of oxygen in intact red cells; type: functional
Please reply with the bare figure in mmHg and do not write the unit itself.

Please review the following examples before continuing.
Kindly note the recorded P50 for `CC(C)(Oc1ccc(NC(=O)Nc2cc(F)cc(F)c2)cc1)C(=O)O` , which is 15

Just so you know, measured P50 for `CC(C)(Oc1ccc(NC(=O)Nc2ccc(Cl)c(Cl)c2)cc1)C(=O)O` came out at 23.5

Just so you know, measured P50 for `Cc1ccc(NC(=O)Nc2ccc(OC(C)(C)C(=O)O)cc2)cc1C` came out at 14.5

# ---- query molecule ----
Sure, the documented P50 for `O=C(O)COc1ccc(NC(=O)Nc2ccc(Cl)c(Cl)c2)cc1` is 13

----------
molecular target: Hemoglobin HbA (Homo sapiens) (UniProt P69905+P68871); assay: Ratio of effect of compound on affinity of hemoglobin for oxygen to that of control; format: functional
Sequence (P68871 2-147 partner limits assumed): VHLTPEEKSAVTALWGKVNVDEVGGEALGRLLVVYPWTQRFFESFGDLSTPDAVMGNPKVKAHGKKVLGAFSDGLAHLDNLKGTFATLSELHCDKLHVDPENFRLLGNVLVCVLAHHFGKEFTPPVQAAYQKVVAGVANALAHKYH
Sequence (P69905 2-142 limits assumed): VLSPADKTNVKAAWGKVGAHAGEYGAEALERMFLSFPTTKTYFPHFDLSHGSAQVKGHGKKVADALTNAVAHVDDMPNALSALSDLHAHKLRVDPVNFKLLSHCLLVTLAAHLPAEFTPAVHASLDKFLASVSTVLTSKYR
Measured Ratio, listed per entry for reference.

For record `CC(C)(Oc1ccc(NC(=O)Nc2cc(Cl)cc(Cl)c2)cc1)C(=O)O` the listed Ratio is 4.43 [middle of 4 runs]

Reported Ratio of `CC(C)(Oc1ccc(NC(=O)Nc2cc(Cl)ccc2Cl)cc1)C(=O)O` : 2.56 [middle of 4 runs]

The measured Ratio associated with `CC(C)(Oc1ccc(NC(=O)c2cc(Cl)cc(Cl)c2)cc1)C(=O)O` reads 2.34 [middle of 4 runs]

From here, focus on the item given below.
Memo: `CC(C)(Oc1ccc(NC(=O)c2ccc(Cl)cc2)cc1)C(=O)O` , reported Ratio: 5.35 [middle of 4 runs]

----------
organism: Homo sapiens; assay: Ability of 1 mM compound to reduce affinity of hemoglobin for oxygen is assessed from 50% partial pressure of oxygen in intact red cells; type: functional
parameter: P50 (mmHg)
Expressed in mmHg, but write only the number.

Answered cases to consult:
Looking up `CC(C)(Oc1ccc(NC(=O)Nc2cc([N+](=O)[O-])ccc2Cl)cc1)C(=O)O` , I found its P50 recorded as 40

Please fill in: P50 reported for `CC(C)(Oc1ccc(NC(=O)Nc2ccc(O)cc2)cc1)C(=O)O` = 8.5

P50 reported for this compound `CCOC(=O)Nc1ccc(NC(=O)Nc2ccc(OC(C)(C)C(=O)O)cc2)cc1` : 11.5

Please look at the following compound next.
Per the record, `Cc1cc(C)c(NC(=O)Nc2ccc(OC(C)(C)C(=O)O)cc2)c(C)c1` has P50 of 12
